MEASURED_TARGET: Prostaglandin G/H synthase 2 (Ovis aries, UniProt P79208)
Sequence (P79208 whole entry): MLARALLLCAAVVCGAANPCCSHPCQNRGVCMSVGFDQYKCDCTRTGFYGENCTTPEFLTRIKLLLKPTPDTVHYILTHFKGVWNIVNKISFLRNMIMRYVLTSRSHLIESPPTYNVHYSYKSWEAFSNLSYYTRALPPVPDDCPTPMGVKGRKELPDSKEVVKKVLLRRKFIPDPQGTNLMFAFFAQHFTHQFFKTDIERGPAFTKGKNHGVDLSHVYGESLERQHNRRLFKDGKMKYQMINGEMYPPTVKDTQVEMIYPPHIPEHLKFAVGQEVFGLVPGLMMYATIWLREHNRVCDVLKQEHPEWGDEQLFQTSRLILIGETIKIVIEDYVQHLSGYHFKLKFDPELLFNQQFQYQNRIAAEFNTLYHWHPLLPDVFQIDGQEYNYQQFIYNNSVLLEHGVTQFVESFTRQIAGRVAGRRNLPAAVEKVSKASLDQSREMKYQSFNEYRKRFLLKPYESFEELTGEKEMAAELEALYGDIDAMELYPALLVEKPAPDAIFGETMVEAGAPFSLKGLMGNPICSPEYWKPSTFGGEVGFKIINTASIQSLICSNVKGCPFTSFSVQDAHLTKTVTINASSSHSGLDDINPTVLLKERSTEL
ASSAY_PROCEDURE: In vitro inhibition of Prostaglandin G/H synthase 2 from sheep placental cotyledons
pIC50: −log10 of the molar value.
MEASUREMENT_NAME: pIC50

* C=C[C@@]1(C)CC=C2C(CCC3[C@](C)(CCC(=O)NS(=O)(=O)c4ccc(I)cc4)CCC[C@@]23C)C1 (stereo partly drawn) | 4.22
* C=C[C@@]1(C)CC=C2C(CCC3[C@](C)(CC(=O)NS(=O)(=O)c4ccc(I)cc4)CCC[C@@]23C)C1 (stereo partly drawn) | 4.14
* C=C[C@@]1(C)CC=C2C(CCC3[C@](C)(CCC/C=C/C(=O)O)CCC[C@@]23C)C1 (stereo partly drawn) | 4.42
